Numbers sourced from patent US11970583B2.

- experimental details: Single-dose toxicokinetic study, intravenous bolus, free (unconjugated) cabazitaxel in plasma
- Type: in vivo, Sprague Dawley Crl:CD (SD) rats
- test context: Sprague Dawley Crl:CD (SD), rat, plasma, intravenous, 2.5 mg/kg
quantity: Cmax

Documented Cmax of `CO[C@H]1C(=O)[C@]2(C)[C@@H](OC)C[C@H]3OC[C@@]3(OC(C)=O)[C@H]2[C@H](OC(=O)c2ccccc2)[C@]2(O)C[C@H](OC(=O)[C@H](O)[C@@H](NC(=O)OC(C)(C)C)c3ccccc3)C(C)=C1C2(C)C` : 801 ng/mL

* * *

- experimental details: Single-dose toxicokinetic study, intravenous bolus, free (unconjugated) cabazitaxel in plasma
- Format: in vivo, Sprague Dawley Crl:CD (SD) rats
- test context: male, Sprague Dawley Crl:CD (SD), rat, plasma, intravenous; 2.5 mg/kg, males
quantity: Tmax
State the value with its unit after it.

Record summary for CO[C@H]1C(=O)[C@]2(C)[C@@H](OC)C[C@H]3OC[C@@]3(OC(C)=O)[C@H]2[C@H](OC(=O)c2ccccc2)[C@]2(O)C[C@H](OC(=O)[C@H](O)[C@@H](NC(=O)OC(C)(C)C)c3ccccc3)C(C)=C1C2(C)C [Cabazitaxel] : reported Tmax = 2 min
